Origin of measurements: PubChem BioAssay AID1996

# Setup Conditions: buffer; pH 7.4; 200.0 µM
Endpoint Name: solubility kinetic

>>> readout_value("O=C(COC(=O)c1c[nH]c2ccccc12)Nc1ccc(F)cc1")
"3.1 µg/mL"
>>> readout_value("COc1ccc(CC(=O)OCC(=O)NC2CCCC(C)C2C)cc1OC (centres undefined)")
"> 54.5 µg/mL"
>>> readout_value("CC(C)n1c(N)c(C#N)c2ccc([N+](=O)[O-])cc2c1=O")
"1.6 µg/mL"
>>> readout_value("Cc1cc(=O)oc2cc(NC(=O)c3cccc(S(C)(=O)=O)c3)ccc12")
"3.5 µg/mL"
>>> readout_value("Cc1ccccc1C(=O)OCC(=O)Nc1cccc(S(=O)(=O)NC2=NCCC2)c1")
"> 62.3 µg/mL"
>>> readout_value("COc1ccccc1CNC(=O)CN1C(=O)NC(Cc2ccccc2)(c2ccccc2)C1=O (centres undefined)")
"32.9 µg/mL"
>>> readout_value("CC(=O)Nc1ccc(S(=O)(=O)NC2Cc3ccccc3C2)cc1")
"6.8 µg/mL"
>>> readout_value("CC(C)OCCCNC(=O)NC(=O)c1ccc(Cl)cc1")
"18.3 µg/mL"
>>> readout_value("CC(=O)N/C(=N\\c1nc(C)cc(C)n1)Nc1ccccc1Cl")
"0.5 µg/mL"
>>> readout_value("CC(=O)c1sc(-c2ccc(F)cc2F)nc1C")
"0.8 µg/mL"
>>> readout_value("O=C(NC1CCCC1)c1ccccc1OCc1ccccc1")
"15 µg/mL"
>>> readout_value("COc1ccc(Cl)cc1NC(=S)NCc1cccnc1")
"> 46.2 µg/mL"
>>> readout_value("CC(=O)Nc1ccc(NC(=O)CCOc2cc(C)ccc2C)cc1")
"2 µg/mL"
>>> readout_value("O=C1CC(N2CCSCC2)C(=O)N1c1ccc(Br)cc1 (centres undefined)")
"> 53.3 µg/mL"
>>> readout_value("NC(=O)c1ccsc1NC(=O)COC(=O)c1ccccn1")
"> 45.8 µg/mL"
>>> readout_value("CSc1nsc(SCC(=O)Nc2cccc(C(=O)O)c2)n1")
"> 51.2 µg/mL"
>>> readout_value("CC(C)c1csc2nc3n(c(=O)c12)CCCCC3")
"32.9 µg/mL"
>>> readout_value("CCn1cc([N+](=O)[O-])c(C(=O)N2CCCc3ccccc32)n1")
"> 45 µg/mL"
>>> readout_value("CCCCC(=O)Nc1cc(Cl)ccc1C(=O)O")
"> 38.4 µg/mL"
>>> readout_value("Cc1ccc(NC(=S)NCCCN2CCOCC2)cc1C")
"> 46.1 µg/mL"
>>> readout_value("CC1CCCC(C)N1/N=C/c1ccc(C#N)cc1 (centres undefined)")
"> 36.2 µg/mL"
>>> readout_value("Cc1ccccc1NS(=O)(=O)c1cccc2nonc12")
"> 43.4 µg/mL"
>>> readout_value("CN(C)C(CNC(=O)c1ccc2nccnc2c1)c1ccco1 (centres undefined)")
"46.5 µg/mL"
>>> readout_value("O=C(COc1cccnc1[N+](=O)[O-])Nc1cccc2ccccc12")
"22.7 µg/mL"
>>> readout_value("O=C(O)c1ccc2cc(-c3ccccc3)[nH]c2c1")
"31.2 µg/mL"
>>> readout_value("C=Cn1ccnc1CC(O)c1ccc(OC)cc1 (centres undefined)")
"33.9 µg/mL"
>>> readout_value("COc1ccc(CCC(=O)NC(C)C2CCCO2)cc1 (centres undefined)")
"> 41.6 µg/mL"
>>> readout_value("NS(=O)(=O)c1cccc(NC(=O)COC(=O)CC2Sc3ccccc3NC2=O)c1 (centres undefined)")
"32.5 µg/mL"
>>> readout_value("Cc1cc(NC(=O)CC2CCCC2)ccc1Br")
"1.6 µg/mL"
>>> readout_value("Cc1ccc(N2CC(O)Cn3c2nc2c3c(=O)n(C)c(=O)n2C)cc1 (centres undefined)")
"24.5 µg/mL"
>>> readout_value("CC1(C)COC2(OC1)C(=O)Nc1ccccc12")
"> 35 µg/mL"
>>> readout_value("Cc1cccc(Nc2nnc(SC3CCOC3=O)s2)c1C (centres undefined)")
"> 48.2 µg/mL"
>>> readout_value("CC(C)OC(=O)/C(=C\\c1ccccc1)NC(=O)c1ccccc1")
"> 46.4 µg/mL"
>>> readout_value("CC(C)NC(=O)C(=O)Nc1cc2c3c(c1)CCC(=O)N3CCC2")
"> 47.3 µg/mL"
>>> readout_value("CCOC(=O)Cc1cnc(N)s1")
"27.6 µg/mL"
>>> readout_value("C=CCOc1nc2c(c(=O)n(C)c(=O)n2C)n1Cc1ccccc1")
"8.2 µg/mL"
>>> readout_value("Cn1cnnc1SCC(=O)Nc1ncc([N+](=O)[O-])s1")
"> 45 µg/mL"
>>> readout_value("Cc1ccc(NC(=O)CNC(=O)c2ccc(C)s2)nc1")
"> 43.4 µg/mL"
>>> readout_value("Cl.O=C(/C=C/c1ccco1)OCC1CCCN2CCCCC12 (centres undefined)")
"> 48.9 µg/mL"
>>> readout_value("O=C(COC(=O)c1ccc(Br)cc1)NC1CCCC1")
"5.4 µg/mL"
>>> readout_value("CC(C)C(NC(=O)c1ccc(F)cc1)C(=O)N1CCN(c2ccccn2)CC1 (centres undefined)")
"25.8 µg/mL"
>>> readout_value("CC(C)NCC(O)COc1cccc2ccccc12.Cl (centres undefined)")
"> 44.4 µg/mL"
>>> readout_value("COc1ccccc1CNC(=O)Cn1cc([N+](=O)[O-])ccc1=O")
"> 47.6 µg/mL"
>>> readout_value("CCOc1ccc(N(C(=O)c2cc3ccccc3oc2=O)C2C=CS(=O)(=O)C2)cc1 (centres undefined)")
"> 63.8 µg/mL"
>>> readout_value("N#C/C(=C/Nc1ccccc1F)S(=O)(=O)c1ccc(Cl)cc1")
"2.1 µg/mL"
>>> readout_value("CC1(C)Cc2nc3[nH]c(=S)[nH]c(=O)c3cc2CO1")
"> 39.5 µg/mL"
>>> readout_value("O=C(/C=C/c1cc(Br)ccc1F)OCC(=O)N1CCOCC1")
"> 55.8 µg/mL"
>>> readout_value("CC(O)CNc1nc2c(c(=O)n(Cc3ccccc3)c(=O)n2C)n1C (centres undefined)")
"> 51.5 µg/mL"
>>> readout_value("CCOC(=O)Cc1csc(NC(=O)CC(C)(C)CC(=O)O)n1")
"> 49.3 µg/mL"

---

solubility kinetic for assorted compounds
# Setup Conditions: buffer; pH 7.4; 200.0 µM
Endpoint Name: solubility kinetic

>>> readout_value("Cc1ccc(N=Cc2ccc(N(C)C)cc2)cc1C")
"0.0203 mg/mL"
>>> readout_value("COCCNC(=O)/C(C#N)=C/c1cc(Br)c(O)c(OC)c1")
"0.045 mg/mL"
>>> readout_value("COc1ccc2nc(C)c(C(N)=O)cc2c1")
"> 0.0324 mg/mL"
>>> readout_value("CC1CCCN(C(=O)COC(=O)Cc2c(F)cccc2Cl)C1 (configuration not stated)")
"0.0409 mg/mL"
>>> readout_value("O=C(c1c(Cl)cccc1Cl)N1CCN(c2ncccn2)CC1")
"> 0.0506 mg/mL"
>>> readout_value("O=C(/C=C/c1ccccc1)NCc1ccco1")
"> 0.0341 mg/mL"
>>> readout_value("COc1ccc(NC(=O)Nc2cccc3ccccc23)c(OC)c1")
"0.0005 mg/mL"
>>> readout_value("O=C(O)c1cc(=O)n(Cc2ccccc2)c(=O)[nH]1")
"> 0.0369 mg/mL"
>>> readout_value("O=C(O)c1cccnc1SCc1ccccc1Cl")
"> 0.042 mg/mL"
>>> readout_value("Cc1cnc(=O)[nH]c1SCc1ccc([N+](=O)[O-])cc1")
"0.0221 mg/mL"
>>> readout_value("CCc1c(O)c(-c2ccccc2)c(=O)n(-c2ccccn2)c1-c1ccccc1")
"> 0.0553 mg/mL"
>>> readout_value("O=C(Nc1ccon1)Nc1ccc(F)cc1F")
"> 0.0359 mg/mL"

---

solubility kinetic for assorted compounds
# Setup Conditions: buffer; pH 7.4; 200.0 µM
Endpoint Name: solubility kinetic (µg/mL)

>>> readout_value("COc1ccc(CCNC2=NCCS2)cc1OC")
29.7
>>> readout_value("Cc1cc(C)nc(Nc2cccc(Cl)c2)n1.Cl")
5.9
>>> readout_value("c1ccc(CCCN2CCOCC2)cc1")
19.2
>>> readout_value("Cc1ccc(N2C(=O)CC(Sc3nc(C)cc(C)n3)C2=O)cc1 (stereo unspecified)")
34.7
>>> readout_value("NC(=S)/N=C/c1c(O)[nH]c(=O)[nH]c1=O")
15.6
>>> readout_value("CCn1cc(C2=NC(CC(C)C)CO2)c2ccccc21 (stereo unspecified)")
9.7
>>> readout_value("O=C(COC(=O)c1ccccc1)NC12CC3CC(CC(C3)C1)C2")
9.2
>>> readout_value("O=C(Nc1ccccn1)c1ccc(Cl)s1")
30.9
>>> readout_value("Cn1c2ccc(F)cc2c2ncn(Cc3ccccn3)c(=O)c21")
7.9
>>> readout_value("O=C(c1ccc2ccccc2c1)N1CCN(c2ccccn2)CC1")
47.5
>>> readout_value("N#Cc1ccc(Cn2c(=O)oc3ccccc32)cc1")
6
>>> readout_value("CS(=O)(=O)N(CC(=O)Nc1ccc(Br)cc1)C1CCCCC1")
55.5
>>> readout_value("COc1cccc(NC(=O)CN(C)C(=O)CC(C)c2ccccc2)c1 (stereo unspecified)")
40
>>> readout_value("CN(c1ccccc1)S(=O)(=O)c1cccc(NC(=O)CCNC(=O)c2ccc([N+](=O)[O-])cc2)c1")
13
>>> readout_value("O=C(Nc1ccncc1)c1c(Cl)cccc1Cl")
8.9
>>> readout_value("CC(SCc1cc(=O)n2c([nH]c3ccccc32)c1C#N)C(=O)O (stereo unspecified)")
21.7
>>> readout_value("CN(CCc1ccccc1)c1ccc([N+](=O)[O-])cn1")
9.6
>>> readout_value("CCOC(=O)CNc1nc(Cl)nc(Nc2ccc(C)cc2)n1")
0.5
>>> readout_value("Cc1ccc(C(=O)Nc2ccc3ncccc3c2)cc1")
6.9
>>> readout_value("CCc1ccc(NC(=O)N2CCCCCC2)cc1")
31.9
>>> readout_value("O=C(NC1CCCCCC1)C(=S)NCc1ccccc1")
1.6
>>> readout_value("Cc1cccc(NC(=O)NCCN2CCN(c3ccccc3)CC2)c1C")
11.5
>>> readout_value("Cc1cc(NC(=O)Nc2ccccc2Cl)no1")
36.2
>>> readout_value("CN(C)c1cc(-c2ccc(Cl)cc2Cl)oc(=O)c1Cl")
3.3
>>> readout_value("CCOc1ccccc1NC(=S)NCc1cccn1C")
38.5
>>> readout_value("O=c1c2ccccc2[nH]c(=S)n1Cc1ccccc1Cl")
0.9
>>> readout_value("CCOc1cc(OCC)cc(C(=O)NCCCN2CCOCC2)c1")
48.4
>>> readout_value("Cc1ccc(NS(=O)(=O)c2ccc(F)cc2)nc1")
34.4
>>> readout_value("O=C(Nc1ccc(NC(=O)c2cccs2)cc1)c1cccs1")
0.9
>>> readout_value("O=C(c1ccc(F)cc1)N1CCC(C(=O)N2CCN(c3ncccn3)CC2)CC1")
59.2
>>> readout_value("COc1ccc(NC(=O)Cn2cc(C(C)=O)c3ccccc32)cc1")
0.5
